- assayName: Drug exposure in skin of Gottingen mini pig at 0.25% dosed topically as monoglyceride cream measured after 24 hrs by LC-MS/MS analysis
- Assay type: ADME, organism-based, Sus scrofa domesticus, Skin of body
- conditionsUsed: in vivo, topical_or_ocular
Recorded Drug uptake, one value per entry.
measuredQuantity: Drug uptake (µM)

| entrySmiles | modifierSign | number |
| --- | --- | --- |
| CCCNC(=O)COc1c(C(=O)Cc2c(Cl)cncc2Cl)ccc(OC)c1OC | = | 26 |
| COc1ccc(-c2ccc(C(=O)O)c(CO)c2)n2nc(C3(C(=O)O)CC3)nc12 | = | 6 |
| COc1ccc(-c2ccc3c(c2)COC3=O)n2nc(C3(C(=O)O)CC3)nc12 | < | 0.1 |
| COc1ccc(-c2ccc3c(c2)COC3=O)n2nc(C3(C(=O)OCC(C)C)CC3)nc12 | = | 24 |
| COc1ccc(-c2ccc(C(=O)O)c(CO)c2)n2nc(C3(C(=O)OCC(C)C)CC3)nc12 | = | 2 |

---

Recorded Drug uptake, one value per entry.
- assayName: Drug exposure in of Isobutyl 1-[8-Methoxy-5-(1-oxo-3H-isobenzofuran-5-yl)-[1,2,4]-triazolo[1,5-a]pyridin-2-yl]cyclopropanecarboxylate dosed Gottingen mini pig assessed as ratio of drug level to total AUC at 0.5 to 2 mg/kg, iv measured up to 24 hrs by LC-MS/MS analysis
- Assay type: ADME, organism-based, Sus scrofa domesticus
- conditionsUsed: in vivo, dose 0.5-2 mg/kg
measuredQuantity: Drug uptake (%)

| entrySmiles | number |
| --- | --- |
| COc1ccc(-c2ccc3c(c2)COC3=O)n2nc(C3(C(=O)OCC(C)C)CC3)nc12 | 6 |
| COc1ccc(-c2ccc(C(=O)O)c(CO)c2)n2nc(C3(C(=O)OCC(C)C)CC3)nc12 | 15 |
| COc1ccc(-c2ccc3c(c2)COC3=O)n2nc(C3(C(=O)O)CC3)nc12 | 55 |
| COc1ccc(-c2ccc(C(=O)O)c(CO)c2)n2nc(C3(C(=O)O)CC3)nc12 | 23 |

---

- assayName: Half life in human keratinocytes at 1 uM by LC-MS/MS analysis
- Assay type: ADME, cell-based, Keratinocyte
measuredQuantity: half-life at 1 µM

| entrySmiles | measuredQuantity | result |
| --- | --- | --- |
| COc1ccc(-c2ccc3c(c2)COC3=O)n2nc(C3(C(=O)O[C@H]4CCOC4)CC3)nc12 | half-life at 1 µM | > 12 h |
| COC(=O)C1(c2nc3c(OC)ccc(-c4ccc5c(c4)COC5=O)n3n2)CC1 | half-life at 1 µM | > 12 h |
| COc1ccc(-c2ccc(C(=O)O)c(CO)c2)n2nc(C3(C(=O)O)CC3)nc12 | half-life at 1 µM | > 12 h |
| COc1ccc(-c2ccc3c(c2)COC3=O)n2nc(C3CC3)nc12 | half-life at 1 µM | > 12 h |
| COc1ccc(-c2ccc3c(c2)COC3=O)n2nc(C3(C(=O)OC4CCC4)CC3)nc12 | half-life at 1 µM | > 9 h |

---

- assayName: AUC (0 to 24 hrs) in human patient with atopic dermatitis at 0.25% dosed topically as lipid cream
- Format: ADME, organism-based
- Set-up: time < 24 hr, dose 0.25 %
- conditionsUsed: in vivo, topical or ocular
Rule: yes (1) for AUC(0-t) at 24 h not less than 5 ng·h/mL, no (0) for anything less.

| entrySmiles | label |
| --- | --- |
| COc1ccc(-c2ccc3c(c2)COC3=O)n2nc(C3(C(=O)O)CC3)nc12 | yes (1) |
| COc1ccc(-c2ccc(C(=O)O)c(CO)c2)n2nc(C3(C(=O)OCC(C)C)CC3)nc12 | no (0) |
| COc1ccc(-c2ccc(C(=O)O)c(CO)c2)n2nc(C3(C(=O)O)CC3)nc12 | yes (1) |
| COc1ccc(-c2ccc(C(=O)O)c(CO)c2)n2nc(C3(C(=O)OCC(C)(C)O)CC3)nc12 | no (0) |
| COc1ccc(-c2ccc3c(c2)COC3=O)n2nc(C3(C(=O)OCC(C)C)CC3)nc12 | no (0) |

---

- assayName: AUC (0 to 24 hrs) in cynomolgus monkey at 30 mg/kg, sc dosed as single administration
- Assay type: ADME, organism-based, Macaca fascicularis
- Design: time < 24 hr, route subcutaneous, dose 30 mg/kg
- conditionsUsed: in vivo
Recorded AUC(0-t) at 24 h, one value per entry.

| entrySmiles | AUC(0-t) at 24 h [ng·h/mL] |
| --- | --- |
| COc1ccc(-c2ccc3c(c2)COC3=O)n2nc(C3(C(=O)OCC(C)C)CC3)nc12 | 21.8 |
| COc1ccc(-c2ccc(C(=O)O)c(CO)c2)n2nc(C3(C(=O)O)CC3)nc12 | 1300 |
| COc1ccc(-c2ccc(C(=O)O)c(CO)c2)n2nc(C3(C(=O)OCC(C)C)CC3)nc12 | 932 |
| COc1ccc(-c2ccc(C(=O)O)c(CO)c2)n2nc(C3(C(=O)OCC(C)(C)O)CC3)nc12 | 19.4 |
| COc1ccc(-c2ccc3c(c2)COC3=O)n2nc(C3(C(=O)O)CC3)nc12 | 208 |

---

- assayName: Cmax in human patient with atopic dermatitis at 0.25% dosed topically as lipid cream
- Format: ADME, organism-based
- Design: dose 0.25 %
- conditionsUsed: in vivo, topical or ocular
Rule: label 1 for Cmax not less than 0.4 ng/mL, label 0 for anything less.

| entrySmiles | label |
| --- | --- |
| COc1ccc(-c2ccc3c(c2)COC3=O)n2nc(C3(C(=O)O)CC3)nc12 | label 0 |
| COc1ccc(-c2ccc(C(=O)O)c(CO)c2)n2nc(C3(C(=O)OCC(C)(C)O)CC3)nc12 | label 0 |
| COc1ccc(-c2ccc(C(=O)O)c(CO)c2)n2nc(C3(C(=O)OCC(C)C)CC3)nc12 | label 0 |
| COc1ccc(-c2ccc(C(=O)O)c(CO)c2)n2nc(C3(C(=O)O)CC3)nc12 | label 1 |
| COc1ccc(-c2ccc3c(c2)COC3=O)n2nc(C3(C(=O)OCC(C)C)CC3)nc12 | label 0 |

---

- assayName: Half life in human keratinocytes at 1 uM by LC-MS/MS analysis
- Assay type: ADME, cell-based, Keratinocyte
Recorded half-life at 1 µM, one value per entry.

| entrySmiles | endpointUnit | modifierSign | half-life at 1 µM |
| --- | --- | --- | --- |
| COC(=O)c1cccc(-c2ccc(OC)c3nc(C4CC4)nn23)c1 | h | > | 12 |
| CCCCOC(=O)C1(c2nc3c(OC)ccc(-c4ccc5c(c4)COC5=O)n3n2)CC1 | h | = | 10 |
| COc1ccc(-c2ccc3c(c2)COC3=O)n2nc(C3(C(=O)OC4CCCCCC4)CC3)nc12 | h | = | 3.7 |
| CC[C@@H](C)OC(=O)C1(c2nc3c(OC)ccc(-c4ccc5c(c4)COC5=O)n3n2)CC1 | h | > | 12 |
| COc1ccc(-c2ccc3c(c2)COC3=O)n2nc(C3(C(=O)O)CC3)nc12 | h | > | 12 |

---

Recorded half-life at 1 µM, one value per entry.
- assayName: Half life in human keratinocytes at 1 uM by LC-MS/MS analysis
- Type: ADME, cell-based, Keratinocyte
measuredQuantity: half-life at 1 µM

| entrySmiles | result |
| --- | --- |
| COc1ccc(-c2ccc3c(c2)COC3=O)n2nc(C3(C(=O)OC4COC4)CC3)nc12 | > 12 h |
| CCCOC(=O)C1(c2nc3c(OC)ccc(-c4ccc5c(c4)COC5=O)n3n2)CC1 | > 12 h |
| CC[C@H](C)OC(=O)C1(c2nc3c(OC)ccc(-c4ccc5c(c4)COC5=O)n3n2)CC1 | > 12 h |
| COc1ccc(-c2cccc3c2COC3=O)n2nc(C3(C(=O)NCC(C)C)CC3)nc12 | > 12 h |
| COc1ccc(-c2ccc3c(c2)COC3=O)n2nc(C3(C(=O)OC(C)C)CC3)nc12 | > 12 h |

---

- assayName: Half life in human whole blood at 0.1 uM by LC-MS/MS analysis
- Format: ADME, tissue-based
measuredQuantity: half-life at 0.1 µM (min)

| entrySmiles | measuredQuantity | modifierSign | number |
| --- | --- | --- | --- |
| COc1ccc(-c2ccc3c(c2)COC3=O)n2nc(C3(C(=O)OC4CCOCC4)CC3)nc12 | half-life at 0.1 µM | = | 10 |
| COc1ccc(-c2ccc3c(c2)COC3=O)n2nc(C3(C(=O)OC4CCCCC4)CC3)nc12 | half-life at 0.1 µM | = | 23 |
| COc1ccc(-c2ccc(C(=O)O)c(CO)c2)n2nc(C3(C(=O)OCC(C)C)CC3)nc12 | half-life at 0.1 µM | > | 60 |
| CCCOC(=O)C1(c2nc3c(OC)ccc(-c4ccc5c(c4)COC5=O)n3n2)CC1 | half-life at 0.1 µM | = | 13 |
| COc1ccc(-c2ccc3c(c2)COC3=O)n2nc(C3(C(=O)OC(C)C)CC3)nc12 | half-life at 0.1 µM | = | 11 |
| CC[C@@H](C)OC(=O)C1(c2nc3c(OC)ccc(-c4ccc5c(c4)COC5=O)n3n2)CC1 | half-life at 0.1 µM | = | 13 |
| COC(=O)c1cccc(-c2ccc(OC)c3nc(C4(C(=O)NCC(C)C)CC4)nn23)c1 | half-life at 0.1 µM | > | 60 |
| COc1ccc(-c2cccc3c2COC3=O)n2nc(C3CC3)nc12 | half-life at 0.1 µM | = | 15 |
| COc1ccc(-c2ccc3c(c2)COC3=O)n2nc(C3(C(=O)O[C@H]4CCOC4)CC3)nc12 | half-life at 0.1 µM | < | 10 |
| COc1ccc(-c2ccc3c(c2)COC3=O)n2nc(C3(C(=O)O[C@@H]4CCOC4)CC3)nc12 | half-life at 0.1 µM | < | 10 |
| COc1ccc(-c2ccc3c(c2)COC3=O)n2nc(C3CC3)nc12 | half-life at 0.1 µM | = | 12 |
| COc1ccc(-c2ccc3c(c2)COC3=O)n2nc(C3(C(=O)OC4CCCCCC4)CC3)nc12 | half-life at 0.1 µM | = | 34 |
| COC(=O)C1(c2nc3c(OC)ccc(-c4ccc5c(c4)COC5=O)n3n2)CC1 | half-life at 0.1 µM | < | 10 |
| COc1ccc(-c2ccc3c(c2)COC3=O)n2nc(C3(C(=O)OC4CCC4)CC3)nc12 | half-life at 0.1 µM | < | 10 |
| COc1ccc(-c2ccc3c(c2)COC3=O)n2nc(C3(C(=O)OC[C@H](C)CO)CC3)nc12 | half-life at 0.1 µM | < | 10 |
| COc1ccc(-c2cccc3c2COC3=O)n2nc(C3(C(=O)NCC(C)C)CC3)nc12 | half-life at 0.1 µM | > | 60 |
| COC(=O)c1cccc(-c2ccc(OC)c3nc(C4CC4)nn23)c1 | half-life at 0.1 µM | > | 60 |
| COc1ccc(-c2ccc3c(c2)COC3=O)n2nc(C3(C(=O)OC[C@@H](C)CO)CC3)nc12 | half-life at 0.1 µM | < | 10 |
| COc1ccc(-c2ccc3c(c2)COC3=O)n2nc(C3(C(=O)OC(C)(C)C)CC3)nc12 | half-life at 0.1 µM | = | 11 |
| COc1ccc(-c2ccc3c(c2)COC3=O)n2nc(C3(C(=O)O)CC3)nc12 | half-life at 0.1 µM | > | 60 |
| COc1ccc(-c2ccc3c(c2)COC3=O)n2nc(C3(C(=O)OCC(C)(C)O)CC3)nc12 | half-life at 0.1 µM | = | 12 |
| COc1ccc(-c2ccc3c(c2)COC3=O)n2nc(C3(C(=O)OCC(C)C)CC3)nc12 | half-life at 0.1 µM | = | 17 |
| COC(=O)c1ccc(-c2ccc(OC)c3nc(C4CC4)nn23)cc1 | half-life at 0.1 µM | > | 60 |
| CCCCOC(=O)C1(c2nc3c(OC)ccc(-c4ccc5c(c4)COC5=O)n3n2)CC1 | half-life at 0.1 µM | = | 20 |
| COc1ccc(-c2ccc3c(c2)COC3=O)n2nc(C3(C(=O)OC4COC4)CC3)nc12 | half-life at 0.1 µM | < | 10 |
| COc1ccc(-c2ccc(C(=O)O)c(CO)c2)n2nc(C3(C(=O)O)CC3)nc12 | half-life at 0.1 µM | > | 60 |
| CC[C@H](C)OC(=O)C1(c2nc3c(OC)ccc(-c4ccc5c(c4)COC5=O)n3n2)CC1 | half-life at 0.1 µM | = | 11 |
| COc1ccc(-c2ccc3c(c2)COC3=O)n2nc(C3(C(=O)OC4CCCC4)CC3)nc12 | half-life at 0.1 µM | = | 17 |
| COc1ccc(-c2cccc(C#N)c2)n2nc(C3(C(=O)OCC(C)C)CC3)nc12 | half-life at 0.1 µM | > | 60 |
| COc1ccc(-c2cccc(C#N)c2)n2nc(C3(COC(=O)C(C)C)CC3)nc12 | half-life at 0.1 µM | = | 28 |
| COc1ccc(-c2ccc3c(c2)COC3=O)n2nc(C3(C(=O)NCC(C)C)CC3)nc12 | half-life at 0.1 µM | < | 10 |
| CCOC(=O)C1(c2nc3c(OC)ccc(-c4ccc5c(c4)COC5=O)n3n2)CC1 | half-life at 0.1 µM | = | 11 |
